# targetDesc: CYP2E1 (Homo sapiens, UniProt P05181)
# Sequence (P05181 whole entry): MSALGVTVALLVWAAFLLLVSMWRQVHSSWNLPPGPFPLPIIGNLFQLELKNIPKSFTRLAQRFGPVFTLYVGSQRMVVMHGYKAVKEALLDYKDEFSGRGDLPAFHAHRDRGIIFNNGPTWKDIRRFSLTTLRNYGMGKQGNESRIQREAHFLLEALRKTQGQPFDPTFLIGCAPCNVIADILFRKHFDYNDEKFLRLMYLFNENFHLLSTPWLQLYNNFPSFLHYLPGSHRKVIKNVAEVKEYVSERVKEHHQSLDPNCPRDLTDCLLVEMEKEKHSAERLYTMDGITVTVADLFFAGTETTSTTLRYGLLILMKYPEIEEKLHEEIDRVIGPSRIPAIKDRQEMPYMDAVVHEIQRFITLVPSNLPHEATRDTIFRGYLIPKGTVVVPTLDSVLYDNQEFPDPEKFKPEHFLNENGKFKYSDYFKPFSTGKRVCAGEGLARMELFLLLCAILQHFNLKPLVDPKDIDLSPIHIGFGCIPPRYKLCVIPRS
# experimentalDetails: CYP2E1 inhibition assay
# Type: biochemical
readoutName: IC50 (µM)
Unit µM implied. Number only.

compound	recordedNumber
C=CCOCC(N)=O [2‐prop‐2‐enoxyacetamide (PEXA), 2‐prop‐2‐enoxyacetamide]	91.4
C=CCCCCN	74.7
C=CCSCC=C [Diallyl sulfide (DAS), Diallyl sulfide, reference compound]	17.3

Now look at this entry.
Quick check: IC50 of C=CCOCCN ? 43.7

###

Each entry below carries its recorded IC50.
# targetDesc: CYP2E1 (Homo sapiens, UniProt P05181)
# experimentalDetails: CYP2E1 inhibition assay
# Assay type: biochemical
# condition: 100 μmol/L p-NP; mean ± SE, four replicates
Unit µM implied. Number only.

compound	targetDesc	measureUnit	IC50
c1ccsc1 [Thiophene (TP), thiophene]	CYP2E1 (Homo sapiens, UniProt P05181)	µM	19.4

Quick check: IC50 of C=CCSC [Allyl methyl sulfide (AMS), allyl methyl sulfide] ? 11.4

###

# targetDesc: CYP2E1 (Homo sapiens)
# experimentalDetails: CYP2E1 inhibition assay
# Format: biochemical
# condition: K i, noncompetitive inhibition; mean ± SE, four replicates
readoutName: Ki

Quick check: Ki of C=CCOCCN ? 34.1 µM

Quick check: Ki of C=CCOCC(N)=O [2‐prop‐2‐enoxyacetamide (PEXA), 2‐prop‐2‐enoxyacetamide] ? 363 µM

Quick check: Ki of C=CCCCCN ? ~10.5 µM
